biological target: putrescine monooxygenase (SpPMO) (Shewanella putrefaciens); construct: gene pubA; test: Csaky iodine oxidation product-formation assay with […] enzyme; Lineweaver-Burk plots; assay type: biochemical; settings: read-out: Ki
value_type: pKi
Friendly reminder that pKi comes from taking -log10 of the concentration in mol/L.

Lookup result for C[C@@H]1O[C@@H](Oc2ccc(CC#N)cc2)[C@H](O)[C@H](O)[C@H]1O [niazirin] ; measured pKi: 4.74

* * *

Target: putrescine monooxygenase (SpPMO) (Shewanella putrefaciens, UniProt A0A4D6BRL2)
Construct: gene pubA
Sequence (A0A4D6BRL2 1-505): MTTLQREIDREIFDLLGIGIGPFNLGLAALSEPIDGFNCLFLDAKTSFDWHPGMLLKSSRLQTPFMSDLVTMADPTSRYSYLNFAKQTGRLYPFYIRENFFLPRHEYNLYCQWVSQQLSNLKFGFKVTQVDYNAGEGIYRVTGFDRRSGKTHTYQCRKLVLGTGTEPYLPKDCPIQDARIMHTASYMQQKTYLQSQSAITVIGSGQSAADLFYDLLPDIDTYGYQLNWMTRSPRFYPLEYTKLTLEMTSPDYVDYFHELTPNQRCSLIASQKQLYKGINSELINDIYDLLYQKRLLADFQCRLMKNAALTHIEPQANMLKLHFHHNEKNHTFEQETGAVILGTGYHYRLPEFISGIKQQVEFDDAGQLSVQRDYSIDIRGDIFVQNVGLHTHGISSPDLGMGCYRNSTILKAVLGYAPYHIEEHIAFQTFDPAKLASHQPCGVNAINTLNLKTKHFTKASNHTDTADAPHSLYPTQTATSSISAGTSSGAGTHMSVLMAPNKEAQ
Assay: Csaky iodine oxidation product-formation assay with […] enzyme; Lineweaver-Burk plots
Type: biochemical
value_type: Ki
Answer format: value, then unit.

Tested on putrescine monooxygenase (SpPMO) (Shewanella putrefaciens, UniProt A0A4D6BRL2), the item COc1cc(/C=C/C(=O)CC(=O)/C=C/c2ccc(O)c(OC)c2)ccc1O [curcumin] showed Ki equal to 2.6 µM
